# Tested on: MOLT-4 leukemia
# assay-explanation: NCI tumour cell line growth inhibition, 48 h
readout: TGI

Field: example entries. Status: answers known.
1. CC1CC2(C)CC(=O)C1C1C(=O)N(CCN3CCOCC3)C(=O)C12 (stereo not given): > 100 µM
2. Cc1nc2c(s/c(=N\N)n2-c2ccccc2)c(=O)n1C: > 100 µM
3. COc1cccc(-c2cc(=O)c3cc(N4CCCC4)ccc3[nH]2)c1: > 10 µM
4. COc1ccc(-c2cc(-c3ccccc3)nc(N)n2)c(O)c1: > 100 µM

Shift focus to the following entry.
Query: Look up TGI with MOLT-4 leukemia for this compound: C=[N+](CNC(=O)CNC(=O)C(Cc1ccccc1)NC(=O)OC(C)(C)C)C(=O)CNC(=O)C(Cc1ccccc1)NC(=O)OC(C)(C)C (stereo not given)
Response: > 100 µM

* * *

# System: HOP-92 NSCLC
# assay-explanation: NCI tumour cell line growth inhibition, 48 h
Form field: TGI (one value per entry).

Field: example entries. Status: answers known.
1) COn1cc(C(=O)N=C(SC)SC)c2ccccc21: > 100 µM
2) Cc1cn(C2CC(O)C(Cn3nncc3Cn3ccc(=O)[nH]c3=O)O2)c(=O)[nH]c1=O (centres undefined): > 100 µM
3) NCCNc1ncnc2ccc(Cl)cc12: > 100 µM

Shift focus to the following entry.
Query: What TGI value was documented for this compound, CC(=O)CC(=O)ON(C)C(=O)Cc1ccccc1 ?
Response: > 100 µM

* * *

# Tested on: OVCAR-5 ovarian
# assay-explanation: NCI tumour cell line growth inhibition, 48 h
Form field: TGI (one value per entry).

Field: example entries. Status: answers known.
1. COc1cc2c(cc1O)N=C[C@@H]1CCC(O)N1C2=O (mixture of isomers): 18.8 µM
2. COc1ccc(/C=C2\CC3C4CC=C5C[C@@H](O)CC[C@]5(C)C4CC[C@]3(C)C2=O)cc1OC (stereo not given in full): > 100 µM
3. Cc1cccc(/C=C2\CCCCCC2=O)c1: > 100 µM
4. Cn1c2c(c3c(=O)[nH]ncc31)CCCc1ccccc1-2: > 100 µM
5. O=C1/C(=C/c2cccc(F)c2)CN(C(=O)C(Cl)Cl)C/C1=C\c1cccc(F)c1: 0.887 µM
6. N#CCCN(CCC#N)c1ccc(/C=C2\N=C(c3ccccc3)N(c3ccccc3)C2=O)cc1: > 100 µM
7. Cc1ccc(C)c(C(=N)c2ccccc2Cc2ccccc2)c1: 98.3 µM
8. Nc1ncnc2c1ncn2C1OC(C(=O)OCCO)C(O)C1O (stereo not given): > 100 µM

Query: What TGI value was documented for this compound, COc1ccc(-c2cc3c(N)ncnc3o2)cc1 ?
Response: > 25 µM

Query: What TGI value was documented for this compound, COc1ccc(/C=C/C(=O)/C=C(/C=C/c2ccc(OC)c(OC)c2OC)OB(F)F)c(OC)c1OC ?
Response: > 100 µM

Query: What TGI value was documented for this compound, CCNC(CCCC(NCC)P(=O)(O)O)P(=O)(O)O (stereo not given) ?
Response: > 100 µM

Query: What TGI value was documented for this compound, O=c1ccc2nc3ccc(O)cc3oc-2c1 ?
Response: > 100 µM

Query: What TGI value was documented for this compound, Cc1ccc(NCc2nnc3c(-c4ccccc4)nc4ccccc4n23)cc1 ?
Response: > 100 µM

* * *

Form field: TGI (one value per entry).
# Test system: NCI-H522 lung
# assay-explanation: NCI tumour cell line growth inhibition, 48 h

Field: example entries. Status: answers known.
1) CC(C)[C@H]1NC(=O)[C@H]2N=C(O[C@@H]2C)[C@@H]2CCCN2C(=O)[C@H](Cc2ccccc2)NC(=O)[C@@H]2COC(=N2)[C@@H](Cc2ccccc2)NC(=O)[C@@H]2COC1=N2: > 100 µM
2) NC(C(=O)O)c1ccc(C(=O)O)cc1 (configuration not stated): > 100 µM
3) CCN(CC)c1ccc2cc(-c3csc(-c4ccc(N(C)C)cc4)n3)c(=O)oc2c1: > 100 µM
4) C/C(CC(O)(C(F)(F)F)C(F)(F)F)=N/Nc1ccc([N+](=O)[O-])cc1[N+](=O)[O-]: > 10 µM
5) COc1ccc([Se]c2ccc(OC)cc2)cc1: > 100 µM

Query: What TGI value was documented for this compound, NC(N)=NC(N)=NCc1ccco1 ?
Response: > 1250 µM

Query: What TGI value was documented for this compound, C1COCCOP2(N3CC3)=NP(N3CC3)(=NP(N3CC3)(N3CC3)=N2)OCCOCCO1 (configuration not stated) ?
Response: > 100 µM

* * *

Form field: TGI (one value per entry).
# Tested on: OVCAR-3 ovarian
# assay-explanation: NCI tumour cell line growth inhibition, 48 h

Query: What TGI value was documented for this compound, NCCNc1ncnc2ccc(Cl)cc12 ?
Response: > 100 µM

Query: What TGI value was documented for this compound, Nc1ncnc2c1ncn2C1OC(C(=O)OCCO)C(O)C1O (stereo unspecified) ?
Response: > 100 µM

Query: What TGI value was documented for this compound, COc1ccccc1NC1=NCC(C)S1 (stereo unspecified) ?
Response: > 100 µM

Query: What TGI value was documented for this compound, CCO/N=C(/CC)c1ccc(Br)s1 ?
Response: > 100 µM

Query: What TGI value was documented for this compound, COc1cc(OC)c2c(c1Cl)O[C@]1(C2=O)C(OCc2ccccc2)=CC(=O)C[C@H]1C ?
Response: 11.4 µM

Query: What TGI value was documented for this compound, C[C@H](c1ccc(Cl)cc1[N+](=O)[O-])N1C(=O)c2cc(I)ccc2NC(=O)[C@H]1c1ccc(Cl)cc1 ?
Response: > 100 µM

Query: What TGI value was documented for this compound, CN1CCN(Cc2ccc(NC(=O)c3cncc(C#Cc4ncc5ccccn45)c3)cc2C(F)(F)F)CC1 ?
Response: 8.21 µM

Query: What TGI value was documented for this compound, CC(C)[C@H]1NC(=O)[C@H]2N=C(O[C@@H]2C)[C@@H]2CCCN2C(=O)[C@H](Cc2ccccc2)NC(=O)[C@@H]2COC(=N2)[C@@H](Cc2ccccc2)NC(=O)[C@@H]2COC1=N2 ?
Response: > 100 µM

* * *

Form field: TGI (one value per entry).
# Test system: SK-MEL-5 melanoma
# assay-explanation: NCI tumour cell line growth inhibition, 48 h
# number only, unit µM dropped from output

1. NC(N)=N/N=C/c1c(-c2ccc(Cl)cc2)nc2n1CCS2: 10.3

Query: What TGI value was documented for this compound, COn1cc(C(=O)N=C(SC)SC)c2ccccc21 ?
Response: 34.4

Query: What TGI value was documented for this compound, CC(=O)OC[C@]12CCC3[C@@]4(C)CCCC(C)(C)C4CC[C@@]3(C)C1CC(C1=CC(=O)OC1O)O2 (some centres undefined) ?
Response: 2.85

Query: What TGI value was documented for this compound, O=C(N/N=C/c1cccc(O)c1)c1ccc(C(F)(F)F)nc1Nc1cccc(C(F)(F)F)c1 ?
Response: 2.44

* * *

Form field: TGI (one value per entry).
# System: M14 melanoma
# assay-explanation: NCI tumour cell line growth inhibition, 48 h

1) COc1ccc2oc3c(ccc[n+]3C)c(=O)c2c1: > 100 µM
2) Fc1ccc(C(OCCN2CCC3CCC(C2)N3C/C=C/c2cccnc2)c2ccc(F)cc2)cc1 (stereo not drawn): 7.09 µM
3) CCC(=O)Oc1ccc(/C=N/NC(N)=S)nc1: 5.59 µM

Query: What TGI value was documented for this molecule, COc1ccc(OC)c(/C=C/C(=O)c2ccc3cc(OC)ccc3c2)c1 ?
Response: > 50 µM

Query: What TGI value was documented for this molecule, CN(C)c1ccc(/C=c2\sc3nnc(Cc4ccccc4)n3c2=O)cc1 ?
Response: > 100 µM

Query: What TGI value was documented for this molecule, CC1CC/C(=C\c2ccc(F)cc2)C2=C1C(c1ccc(F)cc1)n1c(s/c(=C\c3ccc(Cl)cc3)c1=O)=N2 (stereo not drawn) ?
Response: > 100 µM

Query: What TGI value was documented for this molecule, C1COCCOP2(N3CC3)=NP(N3CC3)(=NP(N3CC3)(N3CC3)=N2)OCCOCCO1 (stereo not drawn) ?
Response: > 100 µM

Query: What TGI value was documented for this molecule, CC(=O)Nc1cc(CN2CCCCC2)c(O)c2ncccc12 ?
Response: 68.2 µM

* * *

# Tested on: BT-549 breast
# assay-explanation: NCI tumour cell line growth inhibition, 48 h
readout: TGI

1) S=c1sscc1N1CCSc2ssc(=S)c21: > 100 µM
2) COc1ccc(-c2c(C#N)cnc(N)c2-c2nc3cc(C)c(C)cc3[nH]2)cc1: > 100 µM

Query: What TGI value was documented for this compound, CC(=O)NC1=CC(=O)C=C(Cl)C1=O ?
Response: > 100 µM

* * *

# System: SF-268 CNS
# assay-explanation: NCI tumour cell line growth inhibition, 48 h
readout: TGI

1. COc1ccc2c(c1)NC(=O)CN2c1nc(C)nc2ccccc12: > 100 µM

Query: Look up TGI with SF-268 CNS for this compound: OCC1(CNc2cc(Cl)ncn2)CCC1
Response: > 100 µM

Query: Look up TGI with SF-268 CNS for this compound: COc1cc(N(CCC#N)CCC#N)ccc1/C(N=Nc1cccc(C)c1)=N\NC(=O)c1ccc(C)cc1
Response: > 100 µM
